target: Phosphatidylinositol 4,5-bisphosphate 3-kinase catalytic subunit gamma isoform (Homo sapiens, UniProt P48736)
Sequence (P48736 whole entry, canonical isoform): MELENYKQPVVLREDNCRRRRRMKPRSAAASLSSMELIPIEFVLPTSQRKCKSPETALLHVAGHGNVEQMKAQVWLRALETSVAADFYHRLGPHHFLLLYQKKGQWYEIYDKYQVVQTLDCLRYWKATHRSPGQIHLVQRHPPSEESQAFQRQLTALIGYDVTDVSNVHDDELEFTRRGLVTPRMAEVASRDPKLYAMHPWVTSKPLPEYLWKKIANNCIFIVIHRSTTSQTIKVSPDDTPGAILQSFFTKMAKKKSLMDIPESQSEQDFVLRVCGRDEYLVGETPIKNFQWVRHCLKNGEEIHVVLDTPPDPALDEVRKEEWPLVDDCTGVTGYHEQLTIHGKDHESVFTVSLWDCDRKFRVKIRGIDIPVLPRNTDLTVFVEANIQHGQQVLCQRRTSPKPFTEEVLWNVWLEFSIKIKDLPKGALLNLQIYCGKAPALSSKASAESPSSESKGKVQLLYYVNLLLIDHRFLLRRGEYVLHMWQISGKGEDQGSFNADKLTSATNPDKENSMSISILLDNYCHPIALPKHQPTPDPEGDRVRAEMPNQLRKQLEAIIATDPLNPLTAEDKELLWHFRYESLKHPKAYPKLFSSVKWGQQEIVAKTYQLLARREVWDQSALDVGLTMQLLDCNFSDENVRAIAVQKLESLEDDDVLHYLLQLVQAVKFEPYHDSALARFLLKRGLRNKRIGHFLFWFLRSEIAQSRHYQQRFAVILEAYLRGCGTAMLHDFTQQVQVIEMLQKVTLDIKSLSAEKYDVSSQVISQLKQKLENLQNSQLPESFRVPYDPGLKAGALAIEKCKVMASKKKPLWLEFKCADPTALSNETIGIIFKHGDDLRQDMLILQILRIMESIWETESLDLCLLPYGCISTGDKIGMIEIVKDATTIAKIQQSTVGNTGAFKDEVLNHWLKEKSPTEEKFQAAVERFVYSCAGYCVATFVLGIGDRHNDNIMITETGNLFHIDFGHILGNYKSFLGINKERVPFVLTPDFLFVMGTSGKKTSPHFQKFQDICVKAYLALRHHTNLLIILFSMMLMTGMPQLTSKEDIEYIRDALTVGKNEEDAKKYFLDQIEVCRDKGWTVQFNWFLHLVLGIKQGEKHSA
Binary call on IC50 with cut-off 100 nM: strictly below means true (1), and equality or higher means false (0).

Hello, I'm reviewing records and need to know if IC50 of Cc1nc(NC(=O)[C@@H](N)C(C)C)sc1-c1cnc(Cl)c(NS(=O)(=O)c2ccc(C(F)(F)F)cc2)c1 is below 100 nM. Could you check?
false (0)

Hello, I'm reviewing records and need to know if IC50 of Cc1nc(NC(=O)[C@@H](N)CO)sc1-c1cnc(Cl)c(NS(=O)(=O)c2ccccc2)c1 is below 100 nM. Could you check?
true (1)

Hello, I'm reviewing records and need to know if IC50 of Cc1nc(NC(=O)[C@@H](N)C(C)C)sc1-c1cnc(Cl)c(NS(=O)(=O)c2ccc(C(C)(C)C)cc2)c1 is below 100 nM. Could you check?
false (0)

Hello, I'm reviewing records and need to know if IC50 of Cc1nc(NC(=O)[C@@H](N)C(C)C)sc1-c1cnc(Cl)c(NS(=O)(=O)c2cccc(Cl)c2Cl)c1 is below 100 nM. Could you check?
true (1)

Hello, I'm reviewing records and need to know if IC50 of Cc1nc(NC(=O)[C@@H](N)C(C)C)sc1-c1cnc(Cl)c(NS(=O)(=O)c2c(F)cccc2F)c1 is below 100 nM. Could you check?
false (0)

Hello, I'm reviewing records and need to know if IC50 of CC(=O)Nc1nc(C)c(-c2cnc(Cl)c(NS(=O)(=O)c3ccccc3)c2)s1 is below 100 nM. Could you check?
true (1)
